- System: OVCAR-5 ovarian
- Assay protocol: NCI-60 one-dose screen, 48 h (100 = growth as untreated, 0 = no growth, -100 = all killed)
- Conditions used: 10 µM unless noted
This is part of a sample that, as a whole, favours compounds with a hit. Of some 83,000 tested, about 20% had one in any assay.
Parameter: growth (%)
I only need the number, in %, no unit after it.

Below are worked cases with known answers.
Mol smiles | Observed measurement
O=S(=O)(Nc1ccc(Cl)c(C(F)(F)F)c1)c1ccc(-c2cnc(C3CC3)o2)cc1 | 19.2
O=[N+]([O-])c1ccc(O)cc1Br | 94
Cn1ccnc1C(=O)/C=C/c1ccc(CC(=O)Nc2cc(C(F)(F)F)cc(C(F)(F)F)c2)cc1 | 83.8
CC(C)c1ccc(Cc2cnc(NC(=O)c3cc(Br)cs3)s2)cc1 | 53.7
Clc1cc(Cl)c(Cl)c(-c2nnc(SCc3ccncc3Br)o2)c1 | 80.1

Lab book: growth of `CN(C)c1ccc(-c2c(C#N)c(N)nn2C(=O)c2ccc(NC(=O)c3ccccn3)cc2)cc1` noted as 95.7
